Test system: NCI-H460 lung
Assay: NCI tumour cell line growth inhibition, 48 h
Would you kindly list TGI for each of these compounds?
Response body: numeric value in µM, unit text excluded.

Query (compound): CCOC(=O)/C(=C\c1ccnc2ccccc12)P(=O)(OCC)OCC ; field requested: TGI
8.72

How about Cc1cc(O)c(C2=NN(c3ccc(S(N)(=O)=O)cc3)C(c3ccccc3O)C2)cc1Cl (stereo unspecified) ?
4.38

Now this one: CN(C)CCN1C(=O)c2cccc3c(N)ccc(c23)C1=O
23.8

Here is the next compound: COc1cc(/C=C/C=C2\CCC/C(=C\C=C\c3ccc(O)c(OC)c3)C2=O)ccc1O
57.7

Then this compound: OC(Cc1ccccc1)(Cc1ccccc1)c1ccccc1
44.4

* * *

I'd appreciate it if you could supply TGI values for the items below.
Tested on: SK-MEL-28 melanoma
Assay: NCI tumour cell line growth inhibition, 48 h
Write the number in µM without appending the unit.

Which measured TGI value corresponds to C=C(C)C(=O)OC1C(C(C)CCCO)=C(CO)CC2OC(=O)C(=C)C21 (stereo unspecified) ?
49.1

Record: CC(C)C(C/C=C1/CC(CO)(COC(=O)C(C)(C)C)OC1=O)C(C)C (stereo unspecified)
30.6

Can you check NC(=O)c1ccc2nc(-c3ccc(C4(N)CCC4)cc3)c(-c3ccccc3)n2n1 next?
23.7

Let us now turn to COc1cc(/C=C/C=C2\CCC/C(=C\C=C\c3ccc(O)c(OC)c3)C2=O)ccc1O
30.2

Also CN(C)/N=C1\C=C2CC[C@H](O[Si](C)(C)C(C)(C)C)[C@@]2(C)CC1 ?
29.5

Now consider COc1ccc2nc3ccccc3c(NCCCCCN(CCCl)CCCl)c2c1 .
1.19

Another compound to check: O=C1N[C@H]2C(=O)c3c(Cl)sc(Cl)c3[C@H]2O1
23.2

And what about the compound C=C(C)[C@@H]1CC[C@]2(C(=O)Nc3ccccn3)CC[C@]3(C)[C@H](CC[C@@H]4[C@@]5(C)CCCNC(C)(C)[C@@H]5CC[C@]43C)[C@@H]12 ?
3.13

And O=C1c2ccccc2C(=O)c2c(NC(=O)C(Cl)CCl)cccc21 (stereo unspecified) ?
35.5

Entry to check: CCCCCCCCCCCCOC1C(CNCC2OC3OC(C)(C)OC3C2NC(=O)Nc2ccc(C(F)(F)F)cc2)OC2OC(C)(C)OC21 (stereo unspecified)
14.5

Same question for C[n+]1c2cc(N)ccc2cc2ccc(N)cc21 (tested in a mixture with another compound) please.
7.48

Same thing, different compound: CCCCCCCCCCCCC/C=C1\C[C@H](O)COC1=O
30.3

Same question for COc1ccc2c(O)c(/C=C3\N=Nc4ncccc43)oc2c1C[C@H]1CCNC[C@H]1F please.
12

Entry CC(=O)c1cccc(Nc2c3ccccc3nc3occc23)c1 please
7.97

Same again, this time with CCOC(=O)c1ccc(NC(=O)O/N=C(/Cl)C(C)C)cc1
31

What do we get for CSC1=Nc2c(c(C)c(-c3ccccc3)n2CCCCl)C2=NC(=O)CN12 ?
25.4

Queued: CC(C)(Cl)C(Br)CCC(CBr)=C(Cl)CCl (mixture of isomers)
4.41

What do you get for FC(F)(F)c1[nH]ncc1-c1nc2c(N3CCCCC3)cc3[nH]ncc3c2c2c1CCCC2 ?
1.78

Repeat for the following compound: OC(Cc1ccccc1)(Cc1ccccc1)c1ccccc1
47.3

# iterate: COc1cc(OC)cc(-c2ccc(-c3ccc(C(=N)N)s3)s2)c1
3.51

* * *

Provide the reported TGI of each item.
System: HOP-62 NSCLC
Assay: NCI tumour cell line growth inhibition, 48 h

Entry under review: CS(=O)(=O)N1CC(CCl)c2ccc(NCCN)cc21 (centres undefined) . Reported TGI?
32.1 µM

Another molecule to check: O=[N+]([O-])c1ccc(/C=N\Nc2ccc([N+](=O)[O-])cn2)cc1
> 100 µM

Now consider CCOC(=O)c1ccc(NC(=O)O/N=C(/Cl)C(C)C)cc1 and answer again.
32.2 µM

Consider next the molecule C/C(=C1/N=C(c2ccccc2)OC1=O)c1ccc(C)cc1 in the same way.
> 100 µM

Also need Cc1cccc(Cl)c1NC(N)=S , thanks.
> 100 µM

Quick one: OC12CC3c4ccccc4NC3C3Oc4cccc5c4C31CCN(CC1CC1)C2C5 (centres undefined)
32.8 µM

Here is the next molecule: COCOc1cc(OC)c(Br)cc1C/C(=N/O)C(=O)OC
> 100 µM

Here is the next molecule: NC(N)=NCc1ccc2c(c1)OCO2
> 100 µM

Moving on to the next molecule: CSC1=C(C#N)C(=O)N(c2ccc(Cl)cc2)C(=O)C1C#N (centres undefined)
> 100 µM

Now give it for O=C1c2ccc3c4c(ccc(c24)C(=O)N1CCCNCc1ccccc1)C(=O)N(CCCNCc1ccccc1)C3=O too.
0.772 µM

Ok, now COc1ccc2c(c1)CC[C@@H]1[C@@H]2CC[C@]2(C)c3[nH]ncc3C[C@@H]12
> 50 µM

# repeat for C=C1C(=O)OC2/C=C(\C)C(=O)CC3OC(C)(C)OC3(C)CC(OC(=O)/C(C)=C/C)C12 (centres undefined)
> 100 µM

Another molecule: O=c1c2cc(Br)ccc2nc(-c2ccccc2)n1NCC1(O)OCC(O)C(O)C1O (centres undefined)
> 100 µM

Repeat with Cc1cc(S(N)(=O)=O)c(S/C(=N\Nc2ccc([N+](=O)[O-])cc2)c2ccc(O)cc2)cc1Cl
16.8 µM

Try the molecule CC(C)[C@](O)(C(=O)OCC1=CC[N+]2([O-])CC[C@@H](O)[C@@H]12)[C@H](C)O (some centres undefined)
> 3980 µM

Follow-up item: COc1cc([N+](=O)[O-])c(S(=O)(=O)O)cc1N
> 100 µM

And the next one, C[n+]1c2cc(N)ccc2cc2ccc(N)cc21 (tested in a mixture with another compound) ?
5.37 µM

Please answer likewise for COc1ccc2[nH]c(-c3ccccc3)c(C=C(C#N)C#N)c2c1
36.1 µM

What about O=C(C[C@@]1(O)C(=O)Nc2c(Cl)ccc(Cl)c21)c1ccc(C2CC2)cc1 ?
19.2 µM

* * *

Tested on: OVCAR-4 ovarian
Test: NCI tumour cell line growth inhibition, 48 h; in the data active = GI50 below about 0.43 µM; inactive = the rest
Hi there, use one of these labels in your reply, thanks! active, inactive

How was COc1cc(C(C)(C)C)cc(OC)c1C(O)(c1c(OC)cc(C(C)(C)C)cc1OC)c1c(OC)cc(C(C)(C)C)cc1OC classified in this test?
active

How about COc1cc[c]([Sb]([Br])([CH]=C(C)C)([CH]=C(C)C)[CH]=C(C)C)cc1 ?
inactive

Try this compound next: O=C1OCC2=C1C(c1cccc(C(F)(F)F)c1)c1cc3c(cc1N2CCO)OCO3 (stereo not given)
inactive

Record: CC(N)(Cc1c[nH]c2ccccc12)C(=O)O (stereo not given)
inactive

Repeat for the following compound: Cc1cc(Nc2cc(CN3CCOCC3)c3nc(C)c(Cc4ccc(Cl)cc4F)n3n2)n[nH]1
inactive

* * *

Exercise: state measured TGI for each of the compounds provided.
Test system: SW-620 colon
Test: NCI tumour cell line growth inhibition, 48 h
Reply numerically in µM, unit not repeated.

Given the entry COc1cc2c(cc1O)[C@H](C)C(c1ccccc1OC)O2 (stereo partly specified) , report its measured TGI.
12.2

Moving on to CSC1=Nc2c(c(C)c(-c3ccccc3)n2CCCCl)C2=NC(=O)CN12
53.5

And then O=C(Nc1ccc(Cl)cc1F)c1cc(F)ccc1O , what is it?
23.6

Would you mind doing N=C(N)c1ccc(-c2ccc(-c3cncc4ccccc34)s2)cc1F as well?
3.76

Entry to check: C=CC1(c2ccccc2Cl)N/C(=C/OCC)CO1 (stereo unspecified)
28.4

* * *

Tested on: HCC-2998 colon
Assay: NCI tumour cell line growth inhibition, 48 h
TEST_READOUT: TGI (µM)
Answer in µM, number only, no unit symbol.

May I ask what TGI has been recorded for NCCn1ccc(NC(c2ccccc2)(c2ccccc2)c2ccccc2)nc1=O ?
31.9

Another: COc1ccccc1-c1ccc2nc(NC(=O)Nc3cc(C(F)(F)F)cc(C(F)(F)F)c3)sc2c1
11.1

Try the compound C[C@H](C(=O)N[C@@H](Cc1ccc(-c2ccccc2)cc1)C(=O)NC1CC(C)(C)N(C)C(C)(C)C1)c1ccc(-c2ccccc2)c(F)c1
3.42

Try this compound too: Cc1cc(S(N)(=O)=O)c(S/C(=N\Nc2ccc([N+](=O)[O-])cc2)c2ccc(O)cc2)cc1Cl
3.87

Also need C=C(C)C(=O)OC1C(C(C)CCCO)=C(CO)CC2OC(=O)C(=C)C21 (stereo not given) , thanks.
31.8

What do you get for Clc1nc(Cl)c2ncn(C/C=C/Cn3cnc4c(Cl)nc(Cl)nc43)c2n1 ?
31.4

Param item: COc1cccc2c1nc1cccc(OC)c1[n+]2[O-]
6.98

Follow-up entry: O=C(C[C@@]1(O)C(=O)Nc2c(Cl)ccc(Cl)c21)c1ccc(C2CC2)cc1
14.8

Param item: O=C1OCC2=C1C(c1cccc(C(F)(F)F)c1)c1cc3c(cc1N2CCO)OCO3 (stereo not given)
17

One more compound: COc1ccc2c(c1)C(=O)c1c-2c(OCCN(C)C)nc2cc(OC)ccc12
2.85

And CC(=O)c1cccc(Nc2c3ccccc3nc3occc23)c1 ?
25.2

What about this compound? CN1CCC(C(=O)NNc2ccccc2)CC1
12.6

Query FC(F)(F)c1[nH]ncc1-c1nc2c(N3CCCCC3)cc3[nH]ncc3c2c2c1CCCC2 next
3.06

Next compound up: Cc1ccc(P(c2ccc(C)cc2)c2ccc(C)cc2)cc1
36

Same read-out for [C-]#[O+].[C-]#[O+].[Ir].[O-]c1ccc2ccccc2c1N=Nc1ccccc1 ?
29.4

Here is the next compound: COc1cc(C(C)(C)C)cc(OC)c1C(O)(c1c(OC)cc(C(C)(C)C)cc1OC)c1c(OC)cc(C(C)(C)C)cc1OC
1.36
